# targetOrSystem: Signal transducer and activator of transcription 3 (Homo sapiens) (UniProt P40763)
# Sequence (P40763 whole entry): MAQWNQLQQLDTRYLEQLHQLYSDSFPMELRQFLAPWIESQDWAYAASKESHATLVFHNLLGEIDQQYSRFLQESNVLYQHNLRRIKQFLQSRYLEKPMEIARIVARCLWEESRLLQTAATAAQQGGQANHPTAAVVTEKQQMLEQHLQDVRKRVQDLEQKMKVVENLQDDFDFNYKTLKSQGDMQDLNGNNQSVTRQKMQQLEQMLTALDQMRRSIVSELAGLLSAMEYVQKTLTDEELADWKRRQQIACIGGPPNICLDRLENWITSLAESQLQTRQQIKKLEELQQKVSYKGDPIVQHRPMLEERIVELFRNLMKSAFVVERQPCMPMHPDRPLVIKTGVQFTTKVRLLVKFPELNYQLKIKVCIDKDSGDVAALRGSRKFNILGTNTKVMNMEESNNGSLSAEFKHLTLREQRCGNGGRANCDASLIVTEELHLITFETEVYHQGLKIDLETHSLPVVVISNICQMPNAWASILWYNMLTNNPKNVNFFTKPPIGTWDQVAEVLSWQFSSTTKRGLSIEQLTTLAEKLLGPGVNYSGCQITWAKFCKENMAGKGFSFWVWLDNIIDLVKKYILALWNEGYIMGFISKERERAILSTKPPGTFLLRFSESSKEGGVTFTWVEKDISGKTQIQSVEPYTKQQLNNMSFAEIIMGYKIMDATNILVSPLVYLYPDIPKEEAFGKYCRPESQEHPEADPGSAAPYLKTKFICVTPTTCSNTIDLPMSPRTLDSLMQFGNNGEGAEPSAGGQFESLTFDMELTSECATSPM
# experimentSummary: Inhibition of STAT3 in human HCT 116 cells co-transfected with pSTAT3-TA-Luc at 2 uM after 24 hrs by dual luciferase assay
# Type: cell-based
# label = True if inhibition >= 30% else False

Example results:
> print(dat)
                                  smilesstr                            targetorsystem  discretelabel
1  O=C(Nc1ccc(C(F)(F)F)cc1)Nc1nonc1-c1ccc(O)cc1  Signal transducer and activator of transcription 3 (Homo sapiens) (UniProt P40763)          False
2                   Cc1nonc1NC(=O)Cc1ccccc1  Signal transducer and activator of transcription 3 (Homo sapiens) (UniProt P40763)          False
3           O=C(Cc1ccccc1)Nc1nonc1-c1ccccc1  Signal transducer and activator of transcription 3 (Homo sapiens) (UniProt P40763)          False
4           O=C(Nc1ccccc1)Nc1nonc1-c1ccccc1  Signal transducer and activator of transcription 3 (Homo sapiens) (UniProt P40763)           True
5  O=S(=O)(Nc1nonc1-c1ccc(Cl)cc1)c1ccc(C(F)(F)F)cc1  Signal transducer and activator of transcription 3 (Homo sapiens) (UniProt P40763)          False

**Q:** Record CN(C(=O)Nc1nonc1-c1ccc(O)cc1)c1ccc(C(F)(F)F)cc1 ; criterion: inhibition no lower than 30%. Met?
**A:** True

**Q:** Determine whether measured inhibition meets or exceeds 30% for Cc1nonc1NC(=O)Nc1ccccc1
**A:** False

**Q:** Is reported inhibition greater than or equal to 30% here: CC(=O)Oc1ccc(-c2nonc2NC(=O)N(C)c2ccc(C(F)(F)F)cc2)cc1
**A:** True

---

# targetOrSystem: Signal transducer and activator of transcription 3 (Homo sapiens)
# experimentSummary: Inhibition of STAT3 in human HCT 116 cells co-transfected with pSTAT3-TA-Luc at 2 uM after 24 hrs by dual luciferase assay
# Assay type: cell-based
Each record here notes measured inhibition.
State the answer as a number, implicitly in %.

> print(dat)
                                  smilesstr                            targetorsystem  readoutlabel  val
1  CN(C(=O)N(C)c1nonc1-c1ccc(Cl)cc1)c1ccc(C(F)(F)F)cc1  Signal transducer and activator of transcription 3 (Homo sapiens)    inhibition    8
2  CN(C(=O)Nc1nonc1-c1ccc(OCc2ccccc2)cc1)c1ccc(C(F)(F)F)cc1  Signal transducer and activator of transcription 3 (Homo sapiens)    inhibition   21
3    CN(C(=O)Nc1nonc1-c1ccc(Cl)cc1)c1ccccc1  Signal transducer and activator of transcription 3 (Homo sapiens)    inhibition   25
4  CC(=O)Oc1ccc(-c2nonc2N(C)C(=O)N(C)c2ccc(C(F)(F)F)cc2)cc1  Signal transducer and activator of transcription 3 (Homo sapiens)    inhibition   26
5              O=S(=O)(Cc1ccccc1)Nc1nonc1CO  Signal transducer and activator of transcription 3 (Homo sapiens)    inhibition   -2

**Q:** So what does the record say about inhibition for O=C(NCc1ccccc1)Nc1nonc1-c1ccccc1 ?
**A:** 11

**Q:** Fill in: inhibition of Cc1nonc1NS(=O)(=O)Cc1ccccc1 is ___
**A:** 6

**Q:** Would you kindly share the measured inhibition for COC(=O)c1nonc1NS(=O)(=O)Cc1ccccc1 ?
**A:** 7

**Q:** I would be grateful if you could share the reported inhibition for O=C(Nc1nonc1-c1ccc(Cl)cc1)c1ccc(C(F)(F)F)cc1 .
**A:** -7

**Q:** Give the measured inhibition of O=C(Nc1ccc(C(F)(F)F)cc1)Nc1nonc1-c1ccc(Cl)cc1 .
**A:** 45

**Q:** Any idea what inhibition was measured for COC(=O)c1nonc1NC(=O)Cc1ccccc1 ?
**A:** 9

**Q:** What value of inhibition has been reported for the following compound? O=C(Cc1ccccc1)Nc1nonc1CO
**A:** 14
